# assay.method.text: molar heat capacity at constant pressure
# experimental.conditions: 343.65 K; 101.33 kPa; Liquid; Small sample (50 mg) DSC
Parameter molar heat capacity at constant pressure: see the listing below.
Reply with just the number (in J/K/mol).

mol.smiles	endpoint.label	endpoint.result
BrCCCCCCCCCBr	molar heat capacity at constant pressure	355.59
BrCCCCCCCCBr	molar heat capacity at constant pressure	324.14
BrCCCCCCCCCCCCBr	molar heat capacity at constant pressure	451.57

Give the measured molar heat capacity at constant pressure for BrCCCCCCCCCCCBr
419.04

* * *

Reported molar heat capacity at constant pressure values for the following molecules.
# assay.method.text: molar heat capacity at constant pressure
# experimental.conditions: 334.65 K; 101.33 kPa; Liquid; Small sample (50 mg) DSC
Report the value in J/K/mol with no unit label.

mol.smiles	endpoint.result
BrCCCCCCCCCCCBr	414.01
BrCCCCCCCCBr	320.64
BrCCCCCCCCCCCCBr	446.26

# next molecule below
Respond only with molar heat capacity at constant pressure recorded for BrCCCCCCCCCBr
351.39

* * *

# assay.method.text: molar heat capacity at constant pressure
# experimental.conditions: 340.65 K; 101.33 kPa; Liquid; Small sample (50 mg) DSC
endpoint.label: molar heat capacity at constant pressure (J/K/mol)
Your answer should be a plain number; it is taken to be in J/K/mol.

compound	endpoint.result
BrCCCCCCCCCCCBr [1,11-dibromoundecane]	417.37
BrCCCCCCCCCCCCBr [1,12-dibromododecane]	449.82
BrCCCCCCCCBr [1,8-dibromooctane]	322.97

Now take the following compound into account.
Provide molar heat capacity at constant pressure value for the following compound: BrCCCCCCCCCBr [1,9-dibromononane]
354.19

* * *

# experimental.conditions: 308.15 K; 101.33 kPa; Liquid; Vibrating tube method
endpoint.label: mass density (kg/m3)
Give a bare numeral; the unit kg/m3 is implied.

Worked examples follow.
mol.smiles	mass density [kg/m3]
ClCCCBr	1574.87
ClCCCCCCBr	1327.17
ClCCBr	1710.57
ClCCCCCBr	1388.77

# ---- query compound ----
Supply mass density value. Item: ClCCCCBr
1473.33

* * *

# assay.method.text: molar heat capacity at constant pressure
# experimental.conditions: 349.65 K; 101.33 kPa; Liquid; Small sample (50 mg) DSC
The following molecules are shown together with reported molar heat capacity at constant pressure values.
The answer is to be given in J/K/mol; state only the numeric part.

These solved cases illustrate the format of a correct answer.
mol.smiles	molar heat capacity at constant pressure [J/K/mol]
BrCCCCCCCCBr	326.46
BrCCCCCCCCCBr	358.39

Using known records, supply molar heat capacity at constant pressure for BrCCCCCCCCCCCCBr
454.96

Tell me its molar heat capacity at constant pressure given BrCCCCCCCCCCCBr as the entry.
422.38

* * *

# experimental.conditions: 298.15 K; 101.33 kPa; Liquid; Vibrating tube method
endpoint.label: mass density (kg/m3)
The figure you give is taken to be in kg/m3; do not add the unit.

Known results for molecules:
mol.smiles	endpoint.label	endpoint.result
ClCCBr	mass density	1726.56
ClCCCCCCBr	mass density	1336.47
ClCCCCBr	mass density	1485.12
ClCCCBr	mass density	1588.17

Turning now to a further molecule:
Provide only the value of recorded mass density for ClCCCCCBr
1399.37

* * *

# assay.method.text: molar heat capacity at constant pressure
# experimental.conditions: 318.15 K; 101.33 kPa; Liquid; Small sample (50 mg) DSC
± gives the expanded uncertainty stated by the source.
endpoint.label: molar heat capacity at constant pressure
The number alone won't do; follow it with the unit.

Example cases with answers are listed next.
compound	molar heat capacity at constant pressure
BrCCCCCCCCCCCCBr [1,12-dibromododecane]	436.62 ± 7.6 J/K/mol
BrCCCCCCCCCCCBr [1,11-dibromoundecane]	404.94 ± 7 J/K/mol
BrCCCCCCCCBr [1,8-dibromooctane]	314.17 ± 5.4 J/K/mol

Shift focus to the following entry.
Retrieve molar heat capacity at constant pressure measured for BrCCCCCCCCCBr [1,9-dibromononane] and print it.
343.83 ± 6 J/K/mol

* * *

# assay.method.text: molar heat capacity at constant pressure
# experimental.conditions: 336.15 K; 101.33 kPa; Liquid; Small sample (50 mg) DSC
Recorded molar heat capacity at constant pressure by entry
Kindly answer with a numeric value in J/K/mol, unit omitted.

Examples from the recorded data:
mol.smiles	unit.info	endpoint.result
BrCCCCCCCCBr	J/K/mol	321.22
BrCCCCCCCCCCCCBr	J/K/mol	447.15
BrCCCCCCCCCBr	J/K/mol	352.08

Please examine the following record next.
For BrCCCCCCCCCCCBr , write its molar heat capacity at constant pressure.
414.84

* * *

# assay.method.text: molar heat capacity at constant pressure
# experimental.conditions: 331.65 K; 101.33 kPa; Liquid; Small sample (50 mg) DSC
Listing of recorded molar heat capacity at constant pressure by entry.
Answer format: numeric, J/K/mol implied, no suffix.

compound	molar heat capacity at constant pressure [J/K/mol]
BrCCCCCCCCCCCBr [1,11-dibromoundecane]	412.33

Could you please provide reported molar heat capacity at constant pressure for BrCCCCCCCCBr [1,8-dibromooctane] ? Thanks!
319.47

Supply measured molar heat capacity at constant pressure of BrCCCCCCCCCBr [1,9-dibromononane] in your reply.
349.99

Name the recorded molar heat capacity at constant pressure of the compound listed here: BrCCCCCCCCCCCCBr [1,12-dibromododecane]
444.47

* * *

Quick list: mass density per entry.
# experimental.conditions: 288.15 K; 101.33 kPa; Liquid; Vibrating tube method
# output: bare number, implied unit kg/m3

Illustrative cases are given below, each with its answer.
mol.smiles	endpoint.result
ClCCBr	1742.45
ClCCCCCCBr	1345.17
ClCCCCBr	1496.19
ClCCCBr	1601.96

// switching to the query compound
Recall and state the measured mass density for ClCCCCCBr .
1409.7

* * *

# assay.method.text: molar heat capacity at constant pressure
# experimental.conditions: 339.15 K; 101.33 kPa; Liquid; Small sample (50 mg) DSC
endpoint.label: molar heat capacity at constant pressure (J/K/mol)
Give the number; J/K/mol is assumed, so skip it.

mol.smiles	endpoint.result
BrCCCCCCCCCBr	353.49

Provide molar heat capacity at constant pressure value for the following compound: BrCCCCCCCCCCCCBr
448.93

Could you please provide reported molar heat capacity at constant pressure for BrCCCCCCCCBr ? Thanks!
322.39

Supply recorded molar heat capacity at constant pressure for BrCCCCCCCCCCCBr here.
416.53

* * *

# assay.method.text: molar heat capacity at constant pressure
# experimental.conditions: 319.65 K; 101.33 kPa; Liquid; Small sample (50 mg) DSC
endpoint.label: molar heat capacity at constant pressure (J/K/mol)
Lab book: enter the figure in J/K/mol, no units written.

Example cases with answers are listed next.
mol.smiles	molar heat capacity at constant pressure [J/K/mol]
BrCCCCCCCCCCCBr	405.75
BrCCCCCCCCBr	314.76
BrCCCCCCCCCBr	344.5

Name the recorded molar heat capacity at constant pressure of the compound listed here: BrCCCCCCCCCCCCBr
437.46

* * *

# assay.method.text: molar heat capacity at constant pressure
# experimental.conditions: 348.15 K; 101.33 kPa; Liquid; Small sample (50 mg) DSC
Numbers after ± are expanded uncertainties.
molar heat capacity at constant pressure overview

mol.smiles	molar heat capacity at constant pressure
BrCCCCCCCCCCCCBr	454.13 ± 7.9 J/K/mol
BrCCCCCCCCCCCBr	421.55 ± 7.3 J/K/mol
BrCCCCCCCCBr	325.88 ± 5.6 J/K/mol

Please turn your attention to the following entry.
Item BrCCCCCCCCCBr : provide molar heat capacity at constant pressure
357.69 ± 6.2 J/K/mol

* * *

# assay.method.text: molar heat capacity at constant pressure
# experimental.conditions: 312.15 K; 101.33 kPa; Liquid; Small sample (50 mg) DSC
endpoint.label: molar heat capacity at constant pressure (J/K/mol)
Give the value in J/K/mol but do not write J/K/mol after it.

In the examples that follow, each entry is paired with its recorded molar heat capacity at constant pressure.
mol.smiles	endpoint.label	endpoint.result
BrCCCCCCCCCCCCBr	molar heat capacity at constant pressure	433.39
BrCCCCCCCCCBr	molar heat capacity at constant pressure	341.17
BrCCCCCCCCCCCBr	molar heat capacity at constant pressure	401.79

Return value of molar heat capacity at constant pressure for input BrCCCCCCCCBr , no commentary.
311.8

* * *

# assay.method.text: molar heat capacity at constant pressure
# experimental.conditions: 330.15 K; 101.33 kPa; Liquid; Small sample (50 mg) DSC
endpoint.label: molar heat capacity at constant pressure (J/K/mol)
Express your answer in J/K/mol, writing the number without its unit.

mol.smiles	endpoint.result
BrCCCCCCCCCCCCBr	443.57
BrCCCCCCCCBr	318.88
BrCCCCCCCCCCCBr	411.5

Let's switch to this molecule now.
Tell me its molar heat capacity at constant pressure given BrCCCCCCCCCBr as the entry.
349.3
